// data source = patent US20210155689A1

Entries annotated with measured Mean fluorescence intensity
# assayTarget: T1, human LAG-3 on cells (HEK293-hLAG-3 stable cell line) (human, UniProt P18627 23-525)
# T1 sequence: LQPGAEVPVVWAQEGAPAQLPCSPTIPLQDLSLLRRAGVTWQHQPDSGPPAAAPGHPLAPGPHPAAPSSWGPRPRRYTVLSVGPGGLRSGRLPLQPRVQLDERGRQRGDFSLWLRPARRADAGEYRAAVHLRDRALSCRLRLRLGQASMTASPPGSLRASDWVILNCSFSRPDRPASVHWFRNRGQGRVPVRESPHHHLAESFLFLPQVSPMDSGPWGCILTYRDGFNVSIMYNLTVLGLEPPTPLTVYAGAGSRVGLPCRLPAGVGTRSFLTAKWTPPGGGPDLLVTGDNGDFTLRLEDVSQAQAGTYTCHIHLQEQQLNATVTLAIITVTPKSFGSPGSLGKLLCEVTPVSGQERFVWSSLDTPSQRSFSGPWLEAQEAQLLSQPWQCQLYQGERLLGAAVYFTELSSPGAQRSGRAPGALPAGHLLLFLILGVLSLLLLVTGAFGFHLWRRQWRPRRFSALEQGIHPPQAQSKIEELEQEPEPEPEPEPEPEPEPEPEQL
# methodSummary: FACS, HEK293-hLAG-3, antibody 1.600 nM
I'd appreciate a reply containing only the number, no unit.

Would you please look over these solved cases?
Challenge: Query Mean fluorescence intensity for 556F6B8 mouse-human chimeric antibody (antibody, V domains shown, also called mAb123-556F6B8; 556F8B8) VH: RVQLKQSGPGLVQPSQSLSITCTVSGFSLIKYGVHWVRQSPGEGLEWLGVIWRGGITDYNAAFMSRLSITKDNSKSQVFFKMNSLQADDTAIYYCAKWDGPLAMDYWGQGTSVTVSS VL: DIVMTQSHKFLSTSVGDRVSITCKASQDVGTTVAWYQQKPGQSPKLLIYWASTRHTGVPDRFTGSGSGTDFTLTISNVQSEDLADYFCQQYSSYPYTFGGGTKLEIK
Response given: 39.1

Challenge: Supply recorded Mean fluorescence intensity for 409B11E12 mouse-human chimeric antibody (antibody, V domains shown, also called mAb104-409B11E12) VH: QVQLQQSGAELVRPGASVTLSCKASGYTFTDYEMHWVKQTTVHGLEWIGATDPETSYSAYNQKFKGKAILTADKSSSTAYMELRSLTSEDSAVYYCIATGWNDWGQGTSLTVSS VL: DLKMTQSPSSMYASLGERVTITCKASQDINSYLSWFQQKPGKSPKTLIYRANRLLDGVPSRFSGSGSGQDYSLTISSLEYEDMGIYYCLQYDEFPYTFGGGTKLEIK here.
Response given: 69

Challenge: Identify the reported Mean fluorescence intensity for the following entry. 105F1E10 mouse-human chimeric antibody (antibody, V domains shown, also called mAb009-105F1E10) VH: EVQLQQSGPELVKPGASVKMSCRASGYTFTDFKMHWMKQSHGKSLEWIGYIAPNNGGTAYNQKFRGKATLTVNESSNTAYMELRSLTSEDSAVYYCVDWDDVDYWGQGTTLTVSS VL: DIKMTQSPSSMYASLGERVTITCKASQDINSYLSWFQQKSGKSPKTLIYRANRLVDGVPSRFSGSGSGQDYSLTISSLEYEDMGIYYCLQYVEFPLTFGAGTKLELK
Response given: 34.7

---
Challenge: Quote Mean fluorescence intensity reported for 405B8H3 mouse-human chimeric antibody (antibody, V domains shown, also called mAb103-405B8H3) VH: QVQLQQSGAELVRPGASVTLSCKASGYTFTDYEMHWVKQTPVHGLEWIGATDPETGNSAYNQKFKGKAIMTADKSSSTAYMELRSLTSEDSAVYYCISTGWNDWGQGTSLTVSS VL: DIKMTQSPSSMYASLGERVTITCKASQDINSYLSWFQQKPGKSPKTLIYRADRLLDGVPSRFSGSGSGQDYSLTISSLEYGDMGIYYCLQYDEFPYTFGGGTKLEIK please.
Response given: 62.3

Challenge: Answer with the recorded Mean fluorescence intensity of 409D4E10 mouse-human chimeric antibody (antibody, V domains shown, also called mAb112-409D4E10) VH: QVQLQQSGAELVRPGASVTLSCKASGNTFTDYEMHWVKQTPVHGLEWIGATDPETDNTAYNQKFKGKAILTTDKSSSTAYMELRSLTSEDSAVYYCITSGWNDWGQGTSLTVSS VL: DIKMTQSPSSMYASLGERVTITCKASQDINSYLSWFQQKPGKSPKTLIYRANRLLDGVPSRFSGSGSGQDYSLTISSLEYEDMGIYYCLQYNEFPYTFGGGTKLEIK only.
Response given: 56.8
